- Assay system: GST-Bcl-XL (Homo sapiens, UniProt Q07817)
- Sequence (Q07817 whole entry): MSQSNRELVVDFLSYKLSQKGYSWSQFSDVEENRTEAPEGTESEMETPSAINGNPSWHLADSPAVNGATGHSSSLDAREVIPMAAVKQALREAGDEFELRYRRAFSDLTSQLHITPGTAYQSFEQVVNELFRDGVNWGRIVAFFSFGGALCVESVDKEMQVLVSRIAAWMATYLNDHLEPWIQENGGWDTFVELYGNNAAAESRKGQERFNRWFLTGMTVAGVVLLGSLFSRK
- Assay: TR-FRET binding assay, GST-Bcl-XL with F-Bak peptide probe
- Condition info: TR-FRET Binding Affinity, GST-Bcl-XL, F-Bak peptide probe
Quantity kind: log10 Ki (log10 of the value in µM)
Response schema: value (number) is log10 of Ki in units of µM.

Query string: Which measured log10 Ki value corresponds to CN1CCN(CCNc2ccc(S(=O)(=O)NC(=O)c3ccc(N4CCN(CC5=C(c6ccc(Cl)cc6)CC(C)(C)CC5)CC4)cc3Oc3ccc4[nH]ccc4c3)cc2[N+](=O)[O-])CC1 [Example 95] ?
Result string: -1.80

Below are some molecules; for each one, tell me its log10 Ki.
1. CC1(C)CCC(CN2CCN(c3ccc(C(=O)NS(=O)(=O)c4ccc(NCC5CN(CC(F)F)CCO5)c([N+](=O)[O-])c4)c(Oc4cccc5[nH]cnc45)c3)CC2)=C(c2ccc(Cl)cc2)C1 (stereo not shown) [Example 415]
2. O=C(NS(=O)(=O)c1ccc(NCCCN2CCOCC2)c(S(=O)(=O)C(F)(F)F)c1)c1ccc(N2CCN(Cc3ccccc3-c3ccc(Cl)cc3)CC2)cc1Oc1cccc2[nH]ccc12 [Example 65]
3. CN1CCC(Nc2ccc(S(=O)(=O)NC(=O)c3ccc(N4CCN(CC5=C(c6ccc(Cl)cc6)CC(C)(C)OC5)CC4)cc3Oc3ccc4[nH]ccc4c3)cc2[N+](=O)[O-])CC1 [Example 150]
4. CC1(C)CCC(CN2CCN(c3ccc(C(=O)NS(=O)(=O)c4cnc(OCC5(F)CCN(CC#N)CC5)c(Cl)c4)c(Oc4cccc5[nH]ncc45)c3)CC2)=C(c2ccc(Cl)cc2)C1 [Example 419]
5. CC1(C)CCC(CN2CCN(c3ccc(C(=O)NS(=O)(=O)c4cnc(NCC5(F)CCOCC5)c(Cl)c4)c(Oc4cccc5[nH]ncc45)c3)CC2)=C(c2ccc(Cl)cc2)C1 [Example 413]

Result string:
1. -1.57
2. -1.66
3. -2.03
4. -0.68
5. -1.01
